# protocol_details: Particle size and PDI of lipid nanoparticles by dynamic light scattering
# Type: physicochemical
# recorded_conditions: lipid nanoparticles with luciferase mRNA; ionizable lipid/cholesterol/DSPC/DMG-PEG2000 50/38.5/10/1.5 mol%
Lab note: compare Particle-size distribution (PDI) with 0.1, writing 1.0 if less and 0.0 if equal or more.

>>> label("CCCCCCCCCOC(=O)CCCCCCCN(CCO)CCCC(C)(C)CCC(=O)OC(CCCCCCCC)CCCCCCCC [10a]")
1.0
>>> label("CCCCCCCCCCC(=O)OCC(C)(C)CCCCCN(CCO)CCCCCCCCC(=O)OCC(CCCCCCC)CCCCCCC [87b]")
0.0
>>> label("CCCCCCCCCC(=O)OCCCC(C)(C)CCCN(CCO)CCCCCCC(=O)OCCC(CCCCCCC)CCCCCCC [74b]")
0.0
>>> label("CCCCCCCCCC(=O)OCC1(CCCCCN(CCO)CCCCCCOC(=O)OCC(CCCCCCCC)CCCCCCCC)CC1 [34b]")
0.0
>>> label("CCCCCCCCCOC(=O)OCCCCCCCN(CCCCO)CCCCCC(C)(C)COC(=O)CC(CCCCCCC)CCCCCCC [32b]")
0.0
>>> label("CCCCCCCCCOC(=O)OCCCCCCN(CCO)CCCCCCC(C)(C)C(=O)OC(CCCCCCCC)CCCCCCCC [30a]")
0.0
>>> label("CCCCCCCCCC(=O)OCC1(CCCCCN(CCO)CCCCCCCC(=O)OCCC(CCCCCC)CCCCCC)CC1 [23b]")
1.0
>>> label("CCCCCCCCCOC(=O)CCCCCCCN(CCO)CCCCC(C)(C)COC(=O)OCC(CCCCCCC)CCCCCCC [51a]")
0.0

---

# protocol_details: Encapsulation efficiency of lipid nanoparticles (Quant-it RiboGreen RNA Assay)
# Type: physicochemical
# recorded_conditions: lipid nanoparticles with luciferase mRNA
property_name: Encapsulation efficiency (%)

>>> readout_value("CCCCCCCCCOC(=O)CCCCC(C)(C)CCN(CCO)CCCCCCCC(=O)OCC(CCCCCCC)CCCCCCC [26a]")
91.18
>>> readout_value("CCCCCCCCCCC(=O)OCCCC(C)(C)CCCN(CCCCO)CCCCCCC(=O)OCC(CCCCCCCCC)CCCCCCCCC [115b]")
93.91
>>> readout_value("CCCCCCCCC(=O)OCC(C)(C)CCCCCCN(CCO)CCCCCCC(=O)OCC(CCCCCCCC)CCCCCCCC [110b]")
85.48
>>> readout_value("CCCCCCCCCC(=O)OCC(C)(C)CCCCCN(CCCCO)CCCCCCCC(=O)OCC(CCCCCCC)CCCCCCC [117b]")
72.51
>>> readout_value("CCCCCCCCCCCC(=O)OCC(C)(C)CCCCCN(CCCO)CCCCCCCCC(=O)OCC(CCCCCCCC)CCCCCCCC [88b]")
94.68
>>> readout_value("CCCCCCCCCCC(=O)OCCCC(C)(C)CCCN(CCO)CCCCCCCC(=O)OCCC(CCCCCCC)CCCCCCC [80b]")
93.59
>>> readout_value("CCCCCCCCCC(=O)OCCCC(C)(C)CCCN(CCO)CCCCCCCC(=O)OCC(CCCCCCC)CCCCCCC [57b]")
94.15
>>> readout_value("CCCCCCCCCCC(=O)OCCCC(C)(C)CCCN(CCCCO)CCCCCCCCC(=O)OCC(CCCCCCC)CCCCCCC [116b]")
90.71
